molecular target: Jack bean urease (EC 3.5.1.5) (Canavalia ensiformis, UniProt P07374); construct: purchased Sigma (St. Louis, MO, USA); experiment: biochemical
Sequence (P07374 whole entry, looked up): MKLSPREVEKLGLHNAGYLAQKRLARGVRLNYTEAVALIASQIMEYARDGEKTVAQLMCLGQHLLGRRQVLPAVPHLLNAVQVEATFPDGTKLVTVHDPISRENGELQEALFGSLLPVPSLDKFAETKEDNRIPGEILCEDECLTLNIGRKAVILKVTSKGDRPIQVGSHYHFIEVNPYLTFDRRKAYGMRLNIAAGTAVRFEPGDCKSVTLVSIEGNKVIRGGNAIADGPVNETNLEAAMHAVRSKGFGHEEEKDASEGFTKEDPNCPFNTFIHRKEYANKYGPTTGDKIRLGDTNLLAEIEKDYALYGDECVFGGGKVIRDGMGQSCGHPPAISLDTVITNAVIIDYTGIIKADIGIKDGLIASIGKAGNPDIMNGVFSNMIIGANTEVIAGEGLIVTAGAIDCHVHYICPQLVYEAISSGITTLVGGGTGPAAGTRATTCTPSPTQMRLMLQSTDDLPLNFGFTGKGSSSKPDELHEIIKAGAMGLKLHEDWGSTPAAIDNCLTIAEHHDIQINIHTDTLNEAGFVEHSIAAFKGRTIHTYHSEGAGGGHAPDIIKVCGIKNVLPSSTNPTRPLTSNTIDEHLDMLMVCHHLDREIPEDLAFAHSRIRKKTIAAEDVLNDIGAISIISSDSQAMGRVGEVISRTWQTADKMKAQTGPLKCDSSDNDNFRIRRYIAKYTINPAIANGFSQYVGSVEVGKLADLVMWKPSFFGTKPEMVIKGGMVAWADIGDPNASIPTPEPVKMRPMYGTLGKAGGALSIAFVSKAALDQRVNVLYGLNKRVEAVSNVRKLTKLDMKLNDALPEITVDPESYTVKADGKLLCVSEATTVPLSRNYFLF
METRIC_NAME: IC50

Worked examples, 3 compounds total:
| COMPOUND | METRIC_NAME | VAL |
| --- | --- | --- |
| CCOc1ccc(S(=O)(=O)NC[C@H](O)CO)cc1-c1nnc2c(n1)c(C)nn2C [8g] | IC50 | 0.063 µM |
| CCOc1ccc(S(=O)(=O)N[C@@H](CO)CC(C)C)cc1-c1nnc2c(n1)c(C)nn2C [8j] | IC50 | 0.08 µM |
| CCOc1ccc(S(=O)(=O)N[C@H](CO)C(C)C)cc1-c1nnc2c(n1)c(C)nn2C [8c] | IC50 | 0.078 µM |

Request: What measured IC50 is associated with CCOc1ccc(S(=O)(=O)N[C@@H](CO)C(C)C)cc1-c1nnc2c(n1)c(C)nn2C [8d] on Jack bean urease (EC 3.5.1.5) (Canavalia ensiformis, UniProt P07374)?
Response: 0.064 µM

Request: Another compound to look at: CCOc1ccc(S(=O)(=O)N[C@H](C)CO)cc1-c1nnc2c(n1)c(C)nn2C [8b]
Response: 0.084 µM

Request: Another compound to look at: CCOc1ccc(S(=O)(=O)N[C@H](CO)CC(C)C)cc1-c1nnc2c(n1)c(C)nn2C [8i]
Response: 0.042 µM

Request: Another compound to look at: CCOc1ccc(S(=O)(=O)NC[C@@H](O)CO)cc1-c1nnc2c(n1)c(C)nn2C [8h]
Response: 0.08 µM

Request: Another compound to look at: CCOc1ccc(S(=O)(=O)N[C@@H](C)CO)cc1-c1nnc2c(n1)c(C)nn2C [8a]
Response: 0.037 µM

Request: Another compound to look at: CCOc1ccc(S(=O)(=O)NC[C@H](C)O)cc1-c1nnc2c(n1)c(C)nn2C [8e]
Response: 0.076 µM
